experiment: Terminal half life in CD1 mouse at 2 mg/kg, iv; format: ADME, organism-based; set-up: dose 2 mg/kg, route intravenous; settings: in vivo, read-out: beta t1/2 (converted)
Readout type: half-life (h)
Answers are plain numbers, in h.

Item under review: COc1cc(/C=C2\SC(=O)NC2=O)ccc1Oc1ccc(C#N)cc1C(F)(F)F . Reported half-life? 2.7

###

I'd appreciate it if you could supply remaining at 10 min values for the items below.
experiment: Metabolic stability in mouse liver microsomes assessed as compound remaining after 10 mins; type: ADME, Microsome; conditions: read-out: Activity
State the value, then name its unit.

The cases that follow already have their remaining at 10 min on record.
COC(=O)c1ccc(Oc2ccc(/C=C3\SC(=O)NC3=O)cc2OC)c(C(F)(F)F)c1: 89%
COc1cc(/C=C2\SC(=O)NC2=O)ccc1Oc1ccc(C#N)cc1C(F)(F)F: 100%
COC(=O)c1ccc(Oc2ccc(/C=C3\SC(=O)NC3=O)cc2OC)c2ccccc12: 48%
COc1cc(/C=C2\SC(=O)NC2=O)ccc1Oc1ccc(C(F)(F)F)cc1Br: 39%
COc1cc(/C=C2\SC(=O)NC2=O)ccc1Oc1ccccc1C(F)(F)F: 70%
COc1cc(/C=C2\SC(=O)NC2=O)ccc1Oc1ccc(C(F)(F)F)cc1Cl: 76%
COC(=O)c1ccc(Oc2ccc(/C=C3\SC(=O)NC3=O)cc2OC)c(Cl)c1: 60%

Next:
Item under review: COc1cc(/C=C2\SC(=O)NC2=O)ccc1Oc1ccc(C#N)c2ccccc12 . Reported remaining at 10 min? 65%

Data provenance: ChEMBL document CHEMBL1671812
